Recorded values, source patent US20160257732A1.

Neutralization IC50, H5-HK03 by entry:
# assay.system: HA of ca A/Hong Kong/213/03 (H5N1) (influenza A virus)
# assay.explanation: cell-based or functional assay
Give the quantity in µg/mL, number only.

As a guide, the following entries are already answered.
binder	measurement.kind	readout.units	number
Antibody 5 (antibody, V domains shown) VH: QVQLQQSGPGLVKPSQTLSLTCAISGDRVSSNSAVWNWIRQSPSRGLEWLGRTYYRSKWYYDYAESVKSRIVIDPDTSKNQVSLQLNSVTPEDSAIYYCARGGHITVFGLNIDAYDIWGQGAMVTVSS VL: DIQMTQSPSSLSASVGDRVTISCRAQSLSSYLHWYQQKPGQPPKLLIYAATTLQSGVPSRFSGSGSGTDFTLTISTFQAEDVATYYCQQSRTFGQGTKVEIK	Neutralization IC50, H5-HK03	µg/mL	1.18
Antibody 6 (antibody, V domains shown) VH: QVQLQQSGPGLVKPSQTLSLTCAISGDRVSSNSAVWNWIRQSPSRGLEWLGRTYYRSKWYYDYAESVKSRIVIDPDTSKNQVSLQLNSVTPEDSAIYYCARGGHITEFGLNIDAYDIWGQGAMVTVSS VL: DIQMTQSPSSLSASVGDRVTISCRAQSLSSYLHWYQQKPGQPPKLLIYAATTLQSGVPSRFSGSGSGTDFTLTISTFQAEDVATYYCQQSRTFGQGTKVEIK	Neutralization IC50, H5-HK03	µg/mL	10.4
Antibody 10 (antibody, V domains shown) VH: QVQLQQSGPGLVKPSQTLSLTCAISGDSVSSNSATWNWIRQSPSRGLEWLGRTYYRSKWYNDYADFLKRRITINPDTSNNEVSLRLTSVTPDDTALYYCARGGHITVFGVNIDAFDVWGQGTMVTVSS VL: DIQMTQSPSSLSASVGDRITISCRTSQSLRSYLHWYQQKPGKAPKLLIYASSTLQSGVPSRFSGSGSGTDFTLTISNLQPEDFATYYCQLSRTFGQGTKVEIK	Neutralization IC50, H5-HK03	µg/mL	1.6
Antibody 3 (antibody, V domains shown) VH: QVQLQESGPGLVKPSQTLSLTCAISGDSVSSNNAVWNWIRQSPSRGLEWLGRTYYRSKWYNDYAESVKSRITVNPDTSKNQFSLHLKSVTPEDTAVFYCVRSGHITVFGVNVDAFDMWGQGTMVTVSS VL: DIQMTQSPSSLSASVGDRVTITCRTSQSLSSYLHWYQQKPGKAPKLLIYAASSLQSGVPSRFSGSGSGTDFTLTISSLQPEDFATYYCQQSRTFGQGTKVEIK	Neutralization IC50, H5-HK03	µg/mL	4.64

Exercise: Suppose we examine the binder Antibody 8 (antibody, V domains shown) VH: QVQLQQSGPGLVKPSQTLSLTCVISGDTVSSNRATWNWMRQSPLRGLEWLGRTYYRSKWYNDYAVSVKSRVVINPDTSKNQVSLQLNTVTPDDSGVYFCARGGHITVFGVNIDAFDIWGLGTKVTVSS VL: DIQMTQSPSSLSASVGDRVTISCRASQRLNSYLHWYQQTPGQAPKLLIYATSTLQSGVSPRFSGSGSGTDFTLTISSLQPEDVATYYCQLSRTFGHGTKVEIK ; what Neutralization IC50, H5-HK03 value has been reported?
Key: 1.82
